assay_name: AUC(infinity) in C57BI/6 male mouse at 10 mg/kg, po
Assay type: ADME, organism-based
Design: route oral, time infinity, dose 10 mg/kg
measurement_parameters: C57BL/6, mouse, in vivo
readout: AUC(0-inf) (ng·h/mL)

* COc1cc(N2CCC(N3CCN(C)CC3)CC2)ccc1Nc1ncc2c(n1)N(C)c1sc(C)nc1C(=O)N2C | 1820

----------
The molecules listed here are annotated with their Papp A→B.
assay_name: Apparent permeability of the compound across apical to basolateral side in human Caco-2 cells
Type: ADME, cell-based
readout: Papp A→B (×10⁻⁶ cm/s)

- CCN1C(=O)c2nc(C)sc2N(C)c2nc(Nc3ccc(N4CCC(N5CCN(C)CC5)CC4)cc3OC)ncc21: 8.3
- COc1cc(N2CCC(N3CCN(C)CC3)CC2)ccc1Nc1ncc2c(n1)N(C)c1sc(C)nc1C(=O)N2C: 5.8

----------
target_or_test_system: Glycogen synthase kinase-3 beta (Homo sapiens, UniProt P49841)
Sequence (P49841 whole entry): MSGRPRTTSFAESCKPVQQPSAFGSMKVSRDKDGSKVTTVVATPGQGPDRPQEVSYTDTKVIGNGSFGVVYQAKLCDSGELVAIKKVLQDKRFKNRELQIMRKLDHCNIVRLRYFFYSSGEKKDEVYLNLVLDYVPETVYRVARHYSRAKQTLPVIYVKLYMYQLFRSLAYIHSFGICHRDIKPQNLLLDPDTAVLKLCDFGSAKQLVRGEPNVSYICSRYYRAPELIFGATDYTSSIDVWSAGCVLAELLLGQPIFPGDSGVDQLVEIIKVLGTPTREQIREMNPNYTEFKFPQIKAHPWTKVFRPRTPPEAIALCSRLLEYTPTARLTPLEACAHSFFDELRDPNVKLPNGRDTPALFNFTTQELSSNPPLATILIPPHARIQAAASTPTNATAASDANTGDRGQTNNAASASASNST
pIC50: −log10 of the molar value.
readout: pIC50

• CS(=O)(=O)c1cccc(CNc2nc(Nc3ccc4c(c3)CCC(=O)N4)ncc2C(F)(F)F)c1 = > 6.00

----------
assay_name: Efflux ratio of apparent permeability in human Caco-2 cells
Type: ADME, cell-based
readout: efflux ratio

- CCN1C(=O)c2nc(C)sc2N(C)c2nc(Nc3ccc(N4CCC(N5CCN(C)CC5)CC4)cc3OC)ncc21: 2.2
